These measurements were taken from patent US20210388087A1.

Target: T1, Human CD137 ECD (human)
T1 construct: also called 4-1BB
T1 sequence (chain, as listed by the source limits assumed): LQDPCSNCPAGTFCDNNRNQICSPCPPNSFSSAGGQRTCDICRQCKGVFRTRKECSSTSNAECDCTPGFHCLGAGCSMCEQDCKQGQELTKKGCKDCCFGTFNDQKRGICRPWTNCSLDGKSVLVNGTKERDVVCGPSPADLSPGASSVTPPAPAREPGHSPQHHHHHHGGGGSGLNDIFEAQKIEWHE
Assay: SPR, vs parent H183/L072
experimental_endpoint: fold change of affinity (fold)

dBBDu183H L100dW / dBBDu072L (antibody, name in Kabat numbering, V domains shown, as m1, one VH change) VH: QVQLVESGGGLVQPGRSLRLSCAASGFTFSNAWMHWVRQAPGKGLEWVAQIKDKGNAYAAYYAPSVKGRFTISRDDSKNSIYLQMNSLKTEDTAVYYCHYVHYASASTVWPAFGVDAWGQGTTVTVSS VL: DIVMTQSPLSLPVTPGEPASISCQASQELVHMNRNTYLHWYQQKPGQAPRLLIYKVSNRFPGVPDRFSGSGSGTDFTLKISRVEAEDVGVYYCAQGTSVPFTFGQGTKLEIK: 0.2
dBBDu183H P100eG / dBBDu072L (antibody, name in Kabat numbering, V domains shown, as m1, one VH change) VH: QVQLVESGGGLVQPGRSLRLSCAASGFTFSNAWMHWVRQAPGKGLEWVAQIKDKGNAYAAYYAPSVKGRFTISRDDSKNSIYLQMNSLKTEDTAVYYCHYVHYASASTVLGAFGVDAWGQGTTVTVSS VL: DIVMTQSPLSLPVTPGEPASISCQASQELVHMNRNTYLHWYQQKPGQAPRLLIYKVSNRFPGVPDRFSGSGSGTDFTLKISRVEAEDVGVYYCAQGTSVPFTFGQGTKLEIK: 0.4
dBBDu183H S62G / dBBDu072L (antibody, name in Kabat numbering, V domains shown, as m1, one VH change) VH: QVQLVESGGGLVQPGRSLRLSCAASGFTFSNAWMHWVRQAPGKGLEWVAQIKDKGNAYAAYYAPGVKGRFTISRDDSKNSIYLQMNSLKTEDTAVYYCHYVHYASASTVLPAFGVDAWGQGTTVTVSS VL: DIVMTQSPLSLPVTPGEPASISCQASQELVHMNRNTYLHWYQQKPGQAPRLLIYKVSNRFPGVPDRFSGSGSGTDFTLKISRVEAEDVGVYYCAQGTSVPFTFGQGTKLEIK: 1
dBBDu183H P100eS / dBBDu072L (antibody, name in Kabat numbering, V domains shown, as m1, one VH change) VH: QVQLVESGGGLVQPGRSLRLSCAASGFTFSNAWMHWVRQAPGKGLEWVAQIKDKGNAYAAYYAPSVKGRFTISRDDSKNSIYLQMNSLKTEDTAVYYCHYVHYASASTVLSAFGVDAWGQGTTVTVSS VL: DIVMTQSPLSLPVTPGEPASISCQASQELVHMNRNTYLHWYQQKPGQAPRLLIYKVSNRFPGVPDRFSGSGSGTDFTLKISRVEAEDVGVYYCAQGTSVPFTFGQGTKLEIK: 0.4
dBBDu183H G65N / dBBDu072L (antibody, name in Kabat numbering, V domains shown, as m1, one VH change) VH: QVQLVESGGGLVQPGRSLRLSCAASGFTFSNAWMHWVRQAPGKGLEWVAQIKDKGNAYAAYYAPSVKNRFTISRDDSKNSIYLQMNSLKTEDTAVYYCHYVHYASASTVLPAFGVDAWGQGTTVTVSS VL: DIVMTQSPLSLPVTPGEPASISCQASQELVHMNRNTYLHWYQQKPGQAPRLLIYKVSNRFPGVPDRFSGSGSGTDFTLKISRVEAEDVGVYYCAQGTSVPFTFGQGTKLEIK: 1.2
